Below, each entry is listed alongside its reported EC50 (nM) in vitro.
target: ferroportin tagged at the C-terminus with green fluorescent protein [GFP: P42212]; experiment: cell-based or functional assay
Non-standard residues stand in square brackets, D forms with d. No end group written: not given here. *: point of attachment. PEG12 = NCCOCCOCCOCCOCCOCCOCCOCCOCCOCCOCCOCCOCCC(=O)O; Oic = O=C(O)[C@@H]1C[C@@H]2CCCC[C@@H]2N1; Dip = N[C@H](C(=O)O)C(c1ccccc1)c1ccccc1; Palmitoyl = CCCCCCCCCCCCCCCC(=O)*; β3hF = N[C@H](CC(=O)O)Cc1ccccc1; NMeD = CN[C@@H](CC(=O)O)C(=O)O; Dpa = not defined here

So, {Palmitoyl-PEG12}-FICIP[Dip]H (not fully specified (C-terminus); printed as R4-F-I-C-I-P-Dpa-H; also: retroinverted, D residues underlined, underlining lost) [PR49] ? Its EC50 (nM) in vitro was < 10 nM

So, {Palmitoyl-PEG12}-FICIP[Dip]HTD (not fully specified (C-terminus); printed as R4-F-I-C-I-P-Dpa-H-T-D; also: retroinverted, D residues underlined, underlining lost) [PR47] ? Its EC50 (nM) in vitro was 50 nM

So, [NMeD]TH[Dpa][Oic]RCR[β3hF] (reading uncertain; also: R14 = Palmitoyl-PEG-miniPEG3- substituent, attachment not placed) [PR56] ? Its EC50 (nM) in vitro was 15 nM

So, [NMeD]TH[Dpa]PICI[β3hF] (reading uncertain; also: R14 = Palmitoyl-PEG-miniPEG3- substituent, attachment not placed) [PR53] ? Its EC50 (nM) in vitro was 10 nM
